# Tested on: CN0375-F725-PDC KRAS spheroid viability;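 further: spheroids exposed to agents for 7 days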
# protocol text: Anticancer human tumor CN0375-F725-PDC patient-derived colon carcinoma cell line growth inhibition [KRAS2]
# experimental context: second compound 0.316 µM; first compound 0.0316 µM; active compounds read low; spheroids with HUVEC and MSC
Catalogue of viability, T/C readings, one per entry.

{"columns": ["compound", "viability, T/C (%)"],
 "data": [
  ["COc1cc2nccc(Oc3ccc(NC(=O)C4(C(=O)Nc5ccc(F)cc5)CC4)cc3)c2cc1OC + CNCc1ccccc1-c1csc(C(C)Nc2nc(C)nc3cc(OC)c(OC)cc23)c1", 93],
  ["CC1OCC2(CCN(c3cnc(Sc4ccnc(N)c4Cl)c(N)n3)CC2)C1N (stereo not given) + C=CC(=O)N1CCN(c2nc(=O)n(-c3c(C)ccnc3C(C)C)c3nc(-c4c(O)cccc4F)c(F)cc23)C(C)C1", 98.8],
  ["COC(=O)c1ccc2c(C(=Nc3ccc(N(C)C(=O)CN4CCN(C)CC4)cc3)c3ccccc3)c(O)[nH]c2c1 + C=CC(=O)N1CCN(c2nc(=O)n(-c3c(C)ccnc3C(C)C)c3nc(-c4c(O)cccc4F)c(F)cc23)C(C)C1", 104],
  ["CC(=O)Nc1cccc(-n2c(=O)n(C3CC3)c(=O)c3c(Nc4ccc(I)cc4F)n(C)c(=O)c(C)c32)c1 + C=CC(=O)N1CCN(c2nc(=O)n(-c3c(C)ccnc3C(C)C)c3nc(-c4c(O)cccc4F)c(F)cc23)C(C)C1", 34.6],
  ["COc1cc(Nc2ncc3c(n2)-c2ccc(Cl)cc2C(c2c(F)cccc2OC)=NC3)ccc1C(=O)O + C=CC(=O)N1CCN(c2nc(OCC3CCCN3C)nc3c2CCN(c2cccc4cccc(C)c24)C3)CC1CC#N", 103],
  ["CN(C)C/C=C/C(=O)Nc1cc2c(Nc3ccc(F)c(Cl)c3)ncnc2cc1O[C@H]1CCOC1 + C=CC(=O)N1CCN(c2nc(=O)n(-c3c(C)ccnc3C(C)C)c3nc(-c4c(O)cccc4F)c(F)cc23)C(C)C1", 74.9],
  ["CN(C)C/C=C/C(=O)Nc1cc2c(Nc3ccc(F)c(Cl)c3)ncnc2cc1O[C@H]1CCOC1 + COc1cc2nc(C)nc(NC(C)c3cc(N)cc(C(F)(F)F)c3)c2cc1OC1CCOC1", 78.1],
  ["CC1COCCN1c1cc(-c2ccnn2C)c2ccnc(-c3ccn[nH]3)c2n1 (stereo not given) + C=CC(=O)N1CCN(c2nc(=O)n(-c3c(C)ccnc3C(C)C)c3nc(-c4c(O)cccc4F)c(F)cc23)C(C)C1", 95.3],
  ["Cn1nccc1Nc1nccc(-c2cc3c(s2)C(C)(C)N(CCN2CCOCC2)C3=O)n1 + COc1cc2nc(C)nc(NC(C)c3cc(N)cc(C(F)(F)F)c3)c2cc1OC1CCOC1", 88.8],
  ["CCNC(=O)CC1N=C(c2ccc(Cl)cc2)c2cc(OC)ccc2-n2c(C)nnc21 (stereo not given) + CC1OCC2(CCN(c3cnc(Sc4ccnc(N)c4Cl)c(N)n3)CC2)C1N", 88],
  ["CC1COCCN1c1cc(-c2ccnn2C)c2ccnc(-c3ccn[nH]3)c2n1 (stereo not given) + C=CC(=O)N1CCN(c2nc(OCC3CCCN3C)nc3c2CCN(c2cccc4cccc(C)c24)C3)CC1CC#N", 93.4],
  ["Cn1ncnc1[C@H]1c2n[nH]c(=O)c3cc(F)cc(c23)N[C@@H]1c1ccc(F)cc1 + CNCc1ccccc1-c1csc(C(C)Nc2nc(C)nc3cc(OC)c(OC)cc23)c1", 91],
  ["CC(C)NCC(C(=O)N1CCN(c2ncnc3c2C(C)CC3O)CC1)c1ccc(Cl)cc1 (stereo not given) + COc1cc2nc(C)nc(NC(C)c3cc(N)cc(C(F)(F)F)c3)c2cc1OC1CCOC1", 95.5],
  ["O=C(c1cc(Cc2n[nH]c(=O)c3ccccc23)ccc1F)N1CCN(C(=O)C2CC2)CC1 + CC1OCC2(CCN(c3cnc(Sc4ccnc(N)c4Cl)c(N)n3)CC2)C1N", 100],
  ["CC(C)NCC(C(=O)N1CCN(c2ncnc3c2C(C)CC3O)CC1)c1ccc(Cl)cc1 (stereo not given) + CNCc1ccccc1-c1csc(C(C)Nc2nc(C)nc3cc(OC)c(OC)cc23)c1", 99.4],
  ["COc1cc(Nc2ncc3c(n2)-c2ccc(Cl)cc2C(c2c(F)cccc2OC)=NC3)ccc1C(=O)O + CNCc1ccccc1-c1csc(C(C)Nc2nc(C)nc3cc(OC)c(OC)cc23)c1", 96.8],
  ["CC1(C)CCC(CN2CCN(c3ccc(C(=O)NS(=O)(=O)c4ccc(NCC5CCOCC5)c([N+](=O)[O-])c4)c(Oc4cnc5[nH]ccc5c4)c3)CC2)=C(c2ccc(Cl)cc2)C1 + C=CC(=O)N1CCN(c2nc(OCC3CCCN3C)nc3c2CCN(c2cccc4cccc(C)c24)C3)CC1CC#N", 101],
  ["COc1cc(Nc2ncc3c(n2)-c2ccc(Cl)cc2C(c2c(F)cccc2OC)=NC3)ccc1C(=O)O + CC1OCC2(CCN(c3cnc(Sc4ccnc(N)c4Cl)c(N)n3)CC2)C1N", 88.8],
  ["CC(C)n1nc(-c2ccc3oc(N)nc3c2)c2c(N)ncnc21 + CC1OCC2(CCN(c3cnc(Sc4ccnc(N)c4Cl)c(N)n3)CC2)C1N", 54.6],
  ["CC1(C)CCC(CN2CCN(c3ccc(C(=O)NS(=O)(=O)c4ccc(NCC5CCOCC5)c([N+](=O)[O-])c4)c(Oc4cnc5[nH]ccc5c4)c3)CC2)=C(c2ccc(Cl)cc2)C1 + CNCc1ccccc1-c1csc(C(C)Nc2nc(C)nc3cc(OC)c(OC)cc23)c1", 90.7]
]}

Sourced from PubChem BioAssay AID1963860
